System: D135 ribozyme
Assay: HTS / dose–response intron activity assay (fluorescently labeled substrate, D135 ribozyme)
Assay type: biochemical, Saccharomyces cerevisiae
Settings: 10 concentrations, highest 100 μM, 1:3 serial dilution
pIC50: −log10 of the molar value.
endpoint-name: pIC50

>>> result_value("COc1ccc(Nc2nc(-c3ccccn3)nc3ccccc23)cc1")
5.52

* * *

Target: ai5γ group II intron
Assay: Radioanalytic in vitro splicing assay, splicing inhibition constants
Assay type: biochemical, Saccharomyces cerevisiae
Details: Supplementary table 1; read-out: Ki ai5γ intron
pKi: −log10 of the molar value.
endpoint-name: pKi

>>> result_value("c1ccc(CNc2nc(-c3ccccn3)nc3ccccc23)cc1")
4.11
>>> result_value("c1ccc(-c2nc(Nc3ccc4c(c3)OCO4)c3ccccc3n2)nc1")
4.96
>>> result_value("c1ccc(-c2nc(N3Cc4ccccc4C3)c3ccccc3n2)nc1")
5.12

Source: paper PMC11851433
